Exercise: for every item that follows, state its recorded TGI.
# System: NCI-H460 lung
# test_method_notes: NCI tumour cell line growth inhibition, 48 h
Numbers only, in µM.

Observe how each entry below is paired with its result.
compound	measured_target	value_unit	TGI
CCC1CC2CN3CCc4c([nH]c5c(-c6c(OC)ccc7c8c([nH]c67)[C@]6(C(=O)OC)CC7CC(CC)C6N(CC8)C7)c(O)ccc45)[C@](C(=O)OC)(C2)C13 (stereo partly specified)	NCI-H460 lung	µM	29.2
CC(=O)c1ccc(Oc2ccc(/C(C)=N\N=C(N)N)cc2)cc1	NCI-H460 lung	µM	10.5
Cc1c(C(=O)/C=C/c2ccc(Cl)cc2)[n+](=O)c2ccccc2n1[O-]	NCI-H460 lung	µM	29.1
Brc1ccc([I+]c2ccc(Br)cc2)cc1	NCI-H460 lung	µM	4.23
CC(=O)OC1COC(S[As](C)C)C(OC(C)=O)C1OC(C)=O (stereo unspecified)	NCI-H460 lung	µM	14.5

Next:
Prompt: Assign TGI to the following record: Cc1cc(N(CCC#N)CCC#N)ccc1/C(N=Nc1cccc([N+](=O)[O-])c1)=N/NC(=O)c1cc(Cl)ccc1O
Completion: 88.6

---

# Tested on: BT-549 breast
# test_method_notes: NCI tumour cell line growth inhibition, 48 h
Could you please report measured TGI for the items listed next?

These solved cases illustrate the format of a correct answer.
compound	assay_value
COc1ccc2c3c1OC1C(=O)C=CC4(O)C(C2)NCC[C@@]314 (some centres undefined)	6.32 µM
CC1(c2ccc(Cl)cc2)CC(c2ccc(Cl)cc2)=C(C#N)C(=C(C#N)C#N)N1 (centres undefined)	42.2 µM
CN1C(=O)CNC(=O)[C@H](NC(=O)c2nc3ccccc3cc2O)CSSC[C@H]1C(=O)NCCc1nc2ccccc2cc1O	51.7 µM
O=C(Nc1cc(C(F)(F)F)ccc1F)Nc1n[nH]c2ccccc12	> 100 µM
CC(=O)O[C@H]1C[C@]2(C)C(CCC3O[C@@]32C)[C@@]2(CC(c3ccoc3)OC2O)[C@@H]1C (some centres undefined)	> 100 µM

Items follow; give TGI for each.
1. COC(=O)CCC(=O)c1c(C)[nH]c(/C=C2\N=C(c3ccc[nH]3)C=C2OC)c1C
2. COc1cc(CSc2nc3ccc(C)cc3c(=O)n2Cc2ccccc2)cc(OC)c1OC
3. CCc1c2c(nc3cc4c(cc13)OCO4)-c1cc3c(c(=O)n1C2)COC(=O)[C@@]3(CC)OC(=O)CN

Completion:
["2.17 µM", "77.5 µM", "< 0.0366 µM"]

Give TGI for each of the items listed below.
1. CCOP(=O)(Nc1ccc(-c2ccccc2)cc1)OCC
2. CN1CCN(c2ccc3c4c(cccc24)C(=O)N(CCN2CCN(CCCN4CCN(CCN5C(=O)c6cccc7c(N8CCN(C)CC8)ccc(c67)C5=O)CC4)CC2)C3=O)CC1
3. O=Cc1ccc(-c2ccc(-c3ccc(C=O)s3)o2)s1
4. CCC[C@H](N[C@@H]1CCc2cc(F)cc(F)c2C1)C(=O)Nc1cn(C(C)(C)CNCC(C)(C)C)cn1
5. CC(NS(C)(=O)=O)c1ccccc1 (centres undefined)
6. CC(C)CCC1(O)O[C@H]2C[C@H]3[C@@H]4CCC5CC(=O)C=C[C@]5(C)[C@H]4CC[C@]3(C)[C@H]2[C@@H]1C (some centres undefined)

Completion:
["> 100 µM", "19.7 µM", "> 100 µM", "37.8 µM", "> 100 µM", "27.3 µM"]

Dear colleague, could you please provide TGI for the compounds listed below?
1. [Cu+2].[O-]c1ccc2ccccc2c1N=Nc1ccccc1.[O-]c1ccc2ccccc2c1N=Nc1ccccc1
2. NNC(=O)c1c(Cl)c(Cl)c(Cl)c(Cl)c1-c1nc2ccccc2[nH]1
3. CO[C@@H]1[C@@H](OC2OC(C)C(OC3CC(C)(O)C(OC(=O)CC(C)C)C(C)O3)C(N(C)C)C2O)[C@@H](CC=O)C[C@@H](C)C(=O)/C=C/C2O[C@H]2C[C@@H](C)OC(=O)C[C@H]1OC(C)=O (some centres undefined)

Completion:
1: > 100 µM; 2: 46.5 µM; 3: 40.5 µM

For each of the compounds below, note its TGI.
1. O=C1OC(c2ccc(O)c(-c3ccccc3)c2)(c2ccc(O)c(-c3ccccc3)c2)c2c(Cl)c(Cl)c(Cl)c(Cl)c21
2. C=C(C=O)c1c2c(nc3ccccc13)C(=O)c1ccccc1C2=O
3. CCOc1ccccc1/C=C1\NC(=O)N(/C=C2\C(=O)Oc3ccccc3C2=O)C1=O
4. O=C1OC(c2ccc(O)c(Cl)c2)(c2ccc(O)c(Cl)c2)c2ccc(Br)c3cccc1c23 (tested in a mixture with another compound)
5. C1COC(NC(C2CC2)C2CC2)=N1
6. C(=C1c2ccccc2-c2ccccc21)c1ccccn1

Completion:
1. > 100 µM
2. 3.57 µM
3. > 100 µM
4. 18.6 µM
5. > 100 µM
6. 53.1 µM

Prompt: Name the recorded TGI of the item Brc1ccc([I+]c2ccc(Br)cc2)cc1 in your answer.
Completion: 12.3 µM

---

# Test system: OVCAR-8 ovarian
# test_method_notes: NCI tumour cell line growth inhibition, 48 h
reported_property: TGI

Here's what some known entries look like.
compound	reported_property	assay_value
NC1C/C(=N\O)c2c(I)sc(I)c21 (stereo unspecified)	TGI	29.1 µM
CC1(C)N=C(N)N=C(N)N1c1ccc(F)c(C(F)(F)F)c1	TGI	> 100 µM
Cc1cc2[nH]c3c(C#N)c(-c4ccccc4)c(N=Nc4cccc(C(F)(F)F)c4)c(=O)n3c2cc1C	TGI	> 100 µM
O=C1NC2(CCCCC2)N=C2C(Cl)CCCC12Cl (stereo unspecified)	TGI	> 100 µM
CC(C)OP(=O)(CN(C)/C(F)=N\C(F)(F)F)OC(C)C	TGI	> 100 µM
CCCNCc1nc2ccc(Br)cc2c(=O)n1CCC	TGI	26.7 µM
O=C1c2ccccc2CC12Cc1cc3c(cc1C2=O)CCC3 (stereo unspecified)	TGI	> 100 µM
Cn1c(COC(=O)N2CCCCC2)nc2c(N3CCOCC3)nc(-c3ccccc3)nc21	TGI	2.57 µM
O=C1c2cc3ccccc3cc2C2(c3ccc(Cl)cc3)N[C@H]3CCCC[C@@H]3N12 (stereo partly specified)	TGI	19.4 µM
O=C(Nc1ccc(Br)cc1)Nc1n[nH]c2ccccc12	TGI	> 100 µM

Each compound below has a reported value. Please supply its TGI.
1. CCCNC(=S)N/N=C/c1cccc(C)n1
2. O=P(O)(O)C(CSc1ccccc1)P(=O)(O)O
3. O=C1c2ccccc2C(=O)N1c1ccc(S(=O)(=O)Nc2ncccn2)cc1
4. COc1ccc(-c2n[nH]nc2-c2csc3ccccc23)cc1OC

Completion:
> 100 µM
> 100 µM
> 100 µM
39.1 µM

Provide TGI for all items below, preserving their order.
1. CN1C(c2ccccc2)=CC(=O)C(O)=C(c2ccccc2)S1(=O)=O
2. O=c1[nH]c2ccc(CC(=S)N3CCOCC3)cc2s1
3. CCC[C@H](N[C@@H]1CCc2cc(F)cc(F)c2C1)C(=O)Nc1cn(C(C)(C)CNCC(C)(C)C)cn1
4. CC(ONC(=O)c1cc(C(F)(F)F)cc(C(F)(F)F)c1)C(=O)Nc1ccc(Cl)cc1 (stereo unspecified)
5. CCC1CC2CN3CCc4c([nH]c5c(-c6c(OC)ccc7c8c([nH]c67)[C@]6(C(=O)OC)CC7CC(CC)C6N(CC8)C7)c(O)ccc45)[C@](C(=O)OC)(C2)C13 (stereo partly specified)
6. COc1ccc(Cc2nc3cc(C(F)(F)F)ccc3n2CCCN(C)C)cc1

Completion:
["> 100 µM", "> 100 µM", "> 100 µM", "> 62.1 µM", "49.7 µM", "> 100 µM"]

Prompt: Using the record for COc1ccc2c(c1)c(C1(c3cn(C)c4ccc(OC)cc34)C(=O)Nc3ccc(F)cc31)cn2C , state its measured TGI.
Completion: > 100 µM

---

# Test system: OVCAR-3 ovarian
# test_method_notes: NCI tumour cell line growth inhibition, 48 h
reported_property: TGI (µM)
Give bare numbers, in µM.

> print(dat)
                                   compound  assay.value
1  CC(C)=CCc1c(O)cc(/C=C/c2cc(O)c3c(c2)C[C@@H]2C(C)(C)[C@H](O)[C@H](O)C[C@@]2(C)O3)cc1O         5.11
2                 O=S1(=O)CCN(Cc2ccccn2)CC1         9.94
3            CCCNCc1nc2ccc(Br)cc2c(=O)n1CCC         32.5
4  CCN(CC)CCOc1ccc(/C=C2\CC3C4CCC5=CC(=O)CC[C@]5(C)C4CC[C@]3(C)C2=O)cc1OC (stereo partly specified)         5.07

// batch mode: one TGI value per listed entry
1. ClCCN(CCCl)c1ccc(-n2cnc3c(Cl)ncnc32)cc1
2. COc1ccc(Cc2nc3cc(C(F)(F)F)ccc3n2CCCN(C)C)cc1

Completion:
3.15
46.1
